B1: HDV Ribozyme (parent)
chain: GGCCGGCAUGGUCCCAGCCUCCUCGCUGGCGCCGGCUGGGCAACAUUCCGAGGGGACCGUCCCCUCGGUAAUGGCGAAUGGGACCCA

# Variants of: B1
# Protocol: self-cleavage, relative activity (ratio to wild type); higher = more cleavage; co-transcriptional
Let's look at some variants and their measured self-cleavage.
Answer with a bare number; do not write a unit.

Sequence record: GGCCGGCAUGGUCCCAGCCUCCUCGCUGGCGCCGGCUGGGCCACUUUCCGAGGGGACCGUCCCCUCGGUAAUGGCGAAUGGGACCCA
Endpoint result: 0.306
--
Sequence record: AGCCGGCAUGGUCCCGGCCUCCUCGCUGGCGCCGGCUGGGCAACAUUCCGAGGGGACCGUCCCCUCGGUAAUGGCGAAUGGGACCCA
Endpoint result: 0.302
--
Sequence record: GGCCGGCAUGGUCCCAGCCUCCUCGCUGGCGCCGGCUGUGCAACAUUCCGAGGGGACAGUCCCCUCGGUAAUGGCGAAUGGGACCCA
Endpoint result: 0.665
--
Sequence record: GGCCGGCAUGGUCCCAGCCUCCUAGCUGGCGCCGGCUGGGCAAAAUUCCGAGGGGACCGUCCCCUCGGUAAUGGCGAAUGGGACCCA
Endpoint result: 0.217
--
Sequence record: GGCCGGCAUGGUCCCAGCCUCCUCGCUGGCGCCGGCUGGGCAACAUUCCCAGGGGACCGUCCCCUCGUUAAUGGCGAAUGGGACCCA
Endpoint result: 0.597
--
Sequence record: GGCCGGCAUGGUCCGAGCCUCCUCGCUGGCGCCGGCUGGGCAACAUUCCGAGGGGACCGUCCCCUCGGUAAUGGCGAAUGGAACCCA
Endpoint result: 0.0978
--
Sequence record: GGCCGGCAUGGUCCCGGCCUCCUCGCUGGCGCCGGCUGGGCAACAUUCCGAGGGGACCGUCCCAUCGGUAAUGGCGAAUGGGACCCA
Endpoint result: 0.782
--
Sequence record: GGCCGGCAUGGUCCCAGCCUCCGCGCUGGCGCCGGCUGGGCAACAUUCCGAGGGGACCGUCCCCUCGGUAAUGGCGAACGGGACCCA
Endpoint result: 0.125

Ask | For GGCCGGAAUGGUCCCAGCCUCCUCGCUGGCGCUGGCUGGGCAACAUUCCGAGGGGACCGUCCCCUCGGUAAUGGCGAAUGGGACCCA , what is its reported self-cleavage?
Reply | 0.148

Ask | For AGCCGGCAUGGUCCCAGCCUCCUCGCUGGCGCCGGCUGGGCAACAUUCCGAGGAGACCGUCCCCUCGGUAAUGGCGAAUGGGACCCA , what is its reported self-cleavage?
Reply | 0.172

Ask | For GGCCGGCAUGGUCCCAGCCUCGACGCUGGCGCCGGCUGGGCAACAUUCCGAGGGGACCGUCCCCUCGGUAAUGGCGAAUGGGACCCA , what is its reported self-cleavage?
Reply | 0.0941

Ask | For GGCCGGCAUGGUCCCAGCGUCCUCGCUGGCGCCGGCUGGGCAACAUUCCGAGGGGACCGUCCCCUCGGUAAUGGCGAAUUGGACCCA , what is its reported self-cleavage?
Reply | 0.0902

Ask | For GGCCGGCAUGGCCCCAGCCUCCUCGCUGGCGCCGGCUGGGCAACAUUCCGAGGGGACCGUCCCCUCCGUAAUGGCGAAUGGGACCCA , what is its reported self-cleavage?
Reply | 0.256

Ask | For GGCCGGCAUGGUCCCAGCCUGCUCGCUGGCGCCGGCUGGGCAACAUUCCGAGGGGACCGUCCCCGCGGUAAUGGCGAAUGGGACCCA , what is its reported self-cleavage?
Reply | 0

Ask | For GGCCGGCAUGGUCCCAGCCUCCUCGCUGGCGCCGGCGGGGCAACAUUCCGAGGGGACCGUCCCCUCGGUAAUGUCGAAUGGGACCCA , what is its reported self-cleavage?
Reply | 0.213

Ask | For GGCCGGCAUGGUCCCAGCCUCCUCGCUGGCGCCGGCUGGGCAACAUUCCGAGGCGAUCGUCCCCUCGGUAAUGGCGAAUGGGACCCA , what is its reported self-cleavage?
Reply | 0.997

Ask | For GGCCGGUAUGGUCCCAGCCUCCUCGCUGGCGCCGGCUGGGCAACAUUCCGAGGGGACCGUGCCCUCGGUAAUGGCGAAUGGGACCCA , what is its reported self-cleavage?
Reply | 0.743

Ask | For GGCCGGCAUGGUCCCAGCCUCCUCGCUGGCGCCGGCCGGGCAACAUUCCAAGGGGACCGUCCCCUCGGUAAUGGCGAAUGGGACCCA , what is its reported self-cleavage?
Reply | 1.01

Ask | For GGCCAGCAUGGUCCCAGCCUCCUCGCUGGCGCCGGCUGGGCAACAUUCCGAGGGGACCGUCCCCUCGGUAAUGGCGAAUGGGACCGA , what is its reported self-cleavage?
Reply | 0.13

Ask | For GGCCGGCAUGGUGCCACCCUCCUCGCUGGCGCCGGCUGGGCAACAUUCCGAGGGGACCGUCCCCUCGGUAAUGGCGAAUGGGACCCA , what is its reported self-cleavage?
Reply | 0.138

Ask | For GGCCGGCAUGGUCCCAGCCUCCUCGCUGGCGCCGUCUGGGCAACAUUCCGAGGGGACCGUCCCCUCGGUAAUGGCGAAUGGGGCCCA , what is its reported self-cleavage?
Reply | 0.241

Ask | For GGCCGGCAUGGUCCCAGCCUCCUCGCUGGCGCCGGCUGGGCAACAGUCCGAGGGGACCGUCCCCUCGGUAAUGGCGAAUAGGACCCA , what is its reported self-cleavage?
Reply | 0.0811

Ask | For GGCCGGCAUGGUCCCAGCCUCCUCGCUGGCGCCGGCUGGGCAACAUUCCGAGGGGACCGGCCCCUAGGUAAUGGCGAAUGGGACCCA , what is its reported self-cleavage?
Reply | 0.831
